Origin of the recorded values: patent US20230146675A1

# system_tested: human ENT1 (Homo sapiens)
# Sequence (Q99808 whole entry): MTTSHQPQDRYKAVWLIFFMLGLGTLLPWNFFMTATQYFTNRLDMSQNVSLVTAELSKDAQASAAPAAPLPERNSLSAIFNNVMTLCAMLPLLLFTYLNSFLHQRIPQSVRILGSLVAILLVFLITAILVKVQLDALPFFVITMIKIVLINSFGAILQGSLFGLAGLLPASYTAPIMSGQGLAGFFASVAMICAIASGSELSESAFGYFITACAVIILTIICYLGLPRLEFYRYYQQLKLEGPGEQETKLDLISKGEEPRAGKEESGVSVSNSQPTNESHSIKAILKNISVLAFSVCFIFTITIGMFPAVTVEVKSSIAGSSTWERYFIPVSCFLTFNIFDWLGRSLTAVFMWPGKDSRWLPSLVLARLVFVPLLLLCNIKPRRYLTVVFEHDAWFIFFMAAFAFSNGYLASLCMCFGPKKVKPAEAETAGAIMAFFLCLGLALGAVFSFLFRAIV
# method_notes: ENT1 binding assay (competition with Sahenta-DY647 on JAR cells)
# Parameters: JAR cells expressing ENT1 were bought from ATCC; host or cells: JAR cells
# condition_context: binned IC50
# Procedure: Purpose. […] By measuring the fluorescence at the end of the assay we could assess the binding potency of the compounds of the present invention. JAR cells were resuspended in the described buffer. Compounds of the present invention and Sahenta-DY647 were diluted 200× in the described buffer. The total volume of the reaction was 100 μL (50 μL of cells, 25 μL of the compounds of the present invention and 25 μL of Sahenta-DY647) in a 96 well plate, U-bottom (Greiner®, #650-180). […]
pIC50: −log10 of the molar value.
Documented pIC50 across a set of molecules
readout_name: pIC50

[
  {
    "smiles_input": "COCCN(CCOC)c1nc(N2CCN(C)C(=O)C2)c2nc(N(CCOC)CCOC)nc(NCc3cccc(OC)c3)c2n1",
    "readout_name": "pIC50",
    "result": "> 7.00"
  },
  {
    "smiles_input": "COC1CCN(c2nc(N(CCO)CCO)nc3c(N4CCN(C)C(=O)C4)nc(N(CCO)CCO)nc23)CC1",
    "readout_name": "pIC50",
    "result": "6.00 to 6.30"
  },
  {
    "smiles_input": "COCCN(CCOC)c1nc(N2CC(O)(C(F)(F)F)C2)c2nc(N(CCO)CCO)nc(N3CCC(OC)CC3)c2n1",
    "readout_name": "pIC50",
    "result": "6.00 to 6.30"
  },
  {
    "smiles_input": "COCCN(CCOC)c1nc(N2CC(OC)C2)c2nc(N(CCOC)CCOC)nc(N3CCC(OC)CC3)c2n1",
    "readout_name": "pIC50",
    "result": "6.30 to 7.00"
  },
  {
    "smiles_input": "COCCN(CCOC)c1nc(N2CCC(OC)CC2)c2nc(N(CCOC)CCOC)nc(NCc3cccc(OC(F)(F)F)c3)c2n1",
    "readout_name": "pIC50",
    "result": "> 7.00"
  },
  {
    "smiles_input": "COCCN(CCOC)c1nc(N2CCn3ccnc3C2)c2nc(N(CCOC)CCOC)nc(N3CCN(C)C(=O)C3)c2n1",
    "readout_name": "pIC50",
    "result": "> 7.00"
  },
  {
    "smiles_input": "COCCN(CCOC)c1nc(N2CCN(C)C(=O)C2)c2nc(N3CCN(S(C)(=O)=O)CC3)nc(N3CCC(OC)CC3)c2n1",
    "readout_name": "pIC50",
    "result": "6.30 to 7.00"
  },
  {
    "smiles_input": "COCCN(CCOC)c1nc(N2CCN(c3ncn(C)n3)CC2)c2nc(N(CCOC)CCOC)nc(N(C)Cc3cccc(C#N)c3)c2n1",
    "readout_name": "pIC50",
    "result": "6.30 to 7.00"
  },
  {
    "smiles_input": "COCCN(CCOC)c1nc(N2CCN(C)C(=O)C2)c2nc(N3CCC(S(C)(=O)=O)CC3)nc(N3CCC(OC)CC3)c2n1",
    "readout_name": "pIC50",
    "result": "6.30 to 7.00"
  },
  {
    "smiles_input": "COCCN(CCOC)c1nc(N2CCN(c3nccc(OC)n3)CC2)c2nc(N(CCOC)CCOC)nc(N3CCC(OC)CC3)c2n1",
    "readout_name": "pIC50",
    "result": "6.30 to 7.00"
  },
  {
    "smiles_input": "COCCN(CCOC)c1nc(N2CCN(c3nccs3)CC2)c2nc(N(CCOC)CCOC)nc(N3CCN(c4nccs4)CC3)c2n1",
    "readout_name": "pIC50",
    "result": "> 7.00"
  },
  {
    "smiles_input": "COCCN(CCOC)c1nc(N2CCN(C(C)=O)CC2)c2nc(N(CCOC)CCOC)nc(N3CCC(OC)CC3)c2n1",
    "readout_name": "pIC50",
    "result": "6.30 to 7.00"
  },
  {
    "smiles_input": "COCCN(CCOC)c1nc(N2CCN(c3ncccc3N)CC2)c2nc(N(CCOC)CCOC)nc(N3CCC(OC)CC3)c2n1",
    "readout_name": "pIC50",
    "result": "6.00 to 6.30"
  },
  {
    "smiles_input": "COCCN(CCOC)c1nc(N2CCN(c3nc(C)no3)CC2)c2nc(N(CCOC)CCOC)nc(N3CCN(c4nc(C)no4)CC3)c2n1",
    "readout_name": "pIC50",
    "result": "6.30 to 7.00"
  }
]
